Assay: Leishmania major promastigote growth inhibition, primary screen (AID 1063);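 further: promastigotes grown with compound for 44 hours at 28 °C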
Details: Leishmania major promastigotes, resazurin fluorescence viability; at 10 µM; active compounds read high
Screen size: about 200,000 compounds; about 18,000 (9%) were called active. The entries come from a sample that favours actives as a whole.
Reported property: inhibition (%)
Write the number in % without appending the unit.

Study these solved cases before continuing.
• O=C(CSc1ccccc1F)NC1CCS(=O)(=O)C1 (stereo unspecified) = 1.43
• O=S1(=O)CCC(NC(=S)SCc2ccccc2Br)C1 (stereo unspecified) = 89.6
• COc1cc2[nH]c(=S)n(Cc3ccc(F)cc3)c(=O)c2cc1OC = -5.46
• O=C(CN1C(=O)NC2(CCCCCC2)C1=O)NC1CC1 = -1.36
• CCCSC(=S)NC1CCS(=O)(=O)C1 (stereo unspecified) = 100

Attention now shifts to the item below.
Exercise: I would be grateful if you could share the reported inhibition for CCN(CC(=O)NC1CCS(=O)(=O)C1)S(=O)(=O)c1ccccc1 (stereo unspecified) .
Key: 47.9

====

Assay: Leishmania major promastigote growth inhibition, primary screen (AID 1063);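 further: promastigotes grown with compound for 44 hours at 28 °C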
Details: Leishmania major promastigotes, resazurin fluorescence viability; at 10 µM; active compounds read high
Screen size: about 200,000 compounds; about 18,000 (9%) were called active. Many of the other results were omitted from the sample, so actives are more common in it than they were.
inhibition values by entry
Write the number in % without appending the unit.

* N/C(=N\OC(=O)COc1ccc([N+](=O)[O-])cc1)c1ccc(Br)cc1 | -2.89

Attention now shifts to the item below.
Exercise: I would be grateful if you could share the reported inhibition for `O=C(ON=C1CCN(S(=O)(=O)c2ccccc2)CC1)c1ccc(Cl)cc1` .
Key: -6.64

====

Experiment: Leishmania major promastigote growth inhibition, primary screen (AID 1063);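 further: promastigotes grown with compound for 44 hours at 28 °C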
Settings: Leishmania major promastigotes, resazurin fluorescence viability; at 10 µM
About 18,000 (9%) of roughly 200,000 compounds were called active. Cut-off read from the data, not from the text of the source: active = inhibition above about 50%; inactive = the rest. For the sample, actives were picked, then their nearest neighbours and some compounds at random.
Respond only with the outcome that fits, drawn from active, inactive

Sample answers from the record:
- Cc1ccsc1C1C(C#N)=C(N)OC2=C1C(=O)CC(C)(C)C2 (stereo unspecified): inactive
- COc1cc(/C=N/NC(=O)c2ccccc2)ccc1OS(=O)(=O)c1ccccc1: inactive
- CC(C)(C)C(=O)NCCCNc1ccc([N+](=O)[O-])cc1: inactive

Exercise: Give the logged outcome of this assay for the following compound: Cc1ccc2c(c1)C(O)(CC(=O)c1cccc(-n3cccc3)c1)C(=O)N2 (stereo unspecified)
Key: inactive

Exercise: Try this compound too: `c1ccc(Cc2cc[n+](Cc3ccccc3)cc2)cc1`
Key: active

Exercise: Try this compound too: O=C(C1CCCO1)N1CCN(C(=S)NC2CC2)CC1 (stereo unspecified)
Key: inactive

====

Assay: Leishmania major promastigote growth inhibition, primary screen (AID 1063);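 further: promastigotes grown with compound for 44 hours at 28 °C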
Conditions: Leishmania major promastigotes, resazurin fluorescence viability; at 10 µM
Screen size: about 200,000 compounds; about 18,000 (9%) were called active. Cut-off read from the data, not from the text of the source: active = inhibition above about 50%; inactive = the rest. The full list was thinned out, with actives kept by preference.
Respond only with the outcome that fits, drawn from 1 (yes) (active), 0 (no) (inactive)

Sample answers from the record:
• COc1ccc(C(=O)Nc2ccc(CN3CCOCC3)cc2)cc1 = 0 (no)
• CCc1nnc(NC(=O)CCC(=O)NCc2ccccc2OC)s1 = 0 (no)
• O=C(Nc1ccc(CSc2ccccc2)cc1)c1ccc(CN2CCOCC2)cc1 = 1 (yes)
• COC(=O)C(C)N=Cc1ccccc1 (stereo unspecified) = 0 (no)
• Cc1c(Br)ccc(NC(=O)COc2ccccc2C(N)=O)c1C = 0 (no)

Exercise: Give the logged outcome of this assay for the following compound: Nc1ccc(OCC(O)C[n+]2ccc(CCS(=O)(=O)[O-])cc2)cc1 (stereo unspecified)
Key: 0 (no)

Exercise: Try this compound too: `COc1cc(/C=C(\C#N)C(=O)Nc2ccc3ccccc3c2)c([N+](=O)[O-])cc1OC`
Key: 0 (no)

Exercise: Try this compound too: `CCc1nnc(NC(=O)CCN(c2ccc(C)cc2)S(=O)(=O)c2ccccc2)s1`
Key: 1 (yes)

Exercise: Try this compound too: `Cc1cccc(NS(=O)(=O)c2ccc(C)c(C(N)=O)c2)c1`
Key: 0 (no)

Exercise: Try this compound too: `NC(N)=N/N=C/c1ccc(OCc2ccc(Cl)cc2Cl)cc1`
Key: 1 (yes)

Exercise: Try this compound too: `O=C(c1cn(-c2ccccc2)nc1-c1cc2ccccc2oc1=O)N1CCOCC1`
Key: 0 (no)
